test system: Meloidogyne hapla J2; assay: proportion of mobile M. hapla J2 relative to DMSO control (fraction of DMSO control); higher = more viable, less nematicidal, active = 0.7 or less; conditions: 60 µM; 5 days; temperature: 20 °C
Outcome codes: active, inactive

Clc1ccc(-c2nc(C3CCCCC3)no2)cc1	inactive
Clc1cc(Br)ccc1OCc1nc(-c2ccccc2)no1	inactive
COc1nc2ccc(C)cc2cc1-c1noc(-c2cccnc2)n1	inactive
COc1nc(C)ccc1-c1noc(-c2ccccc2Cl)n1	inactive
Ic1ccccc1-c1nc(-c2cccnc2)no1	inactive
Nc1nc(CSc2nnc(-c3ccccc3)o2)cs1	inactive
Cc1ccc(-c2nc(-c3ccc(F)cc3)no2)cc1	inactive
COc1ccc(C(=O)CSc2nnc(-c3ccccc3)o2)cc1	inactive
COc1ccc(Cl)cc1-c1noc(-c2cccc(C)c2)n1	inactive
COc1ccc(Cl)cc1-c1nc(-c2ccc3c(c2)OCO3)no1	inactive
Fc1ccc(OCc2nc(-c3ccc(Br)cc3)no2)cc1	inactive
Cc1nc(CSc2nnc(-c3ccccc3)o2)cs1	active
O=C(Nc1cccc(-c2noc(-c3cccnc3)n2)c1)c1cccs1	inactive
